All figures here come from paper PMC9952338.

measurement target: tyrosinase enzyme
test description: Enzymatic antityrosinase activity, Dopachrom method with L-DOPA
Format: biochemical, mushroom
test conditions: Experiment of Table 4, reference for the correlation; in µg/mL
endpoint name: IC50 Values

// worked examples, IC50 Values included
In [3]: df
Out[3]:
                                  compound  measurement_target  endpoint_name  assay_result
0        Oc1cc(O)cc(/C=C/c2ccc(O)c(O)c2)c1   tyrosinase enzyme    IC50 Values        149.73
1  CC(C)=CCc1c(O)cc(-c2cc3ccc(O)cc3o2)cc1O   tyrosinase enzyme    IC50 Values        128.67

I = Oc1cc(O)cc(-c2cc3ccc(O)cc3o2)c1
II = CC(=CCc1c(O)cc(-c2cc3ccc(O)cc3o2)cc1O)CO [Compound 1, ω-Hydroxymoracin C]
Query: Please choose the item with the lower IC50 Values value from this pair: I and II Provide the label of your selected option as the answer.
Response: I
